# TARGET_DESC: IRE1α (Homo sapiens, UniProt O75460)
# Construct: purchased Signal Chem E31-11G
# Sequence (O75460 468-977 limits assumed): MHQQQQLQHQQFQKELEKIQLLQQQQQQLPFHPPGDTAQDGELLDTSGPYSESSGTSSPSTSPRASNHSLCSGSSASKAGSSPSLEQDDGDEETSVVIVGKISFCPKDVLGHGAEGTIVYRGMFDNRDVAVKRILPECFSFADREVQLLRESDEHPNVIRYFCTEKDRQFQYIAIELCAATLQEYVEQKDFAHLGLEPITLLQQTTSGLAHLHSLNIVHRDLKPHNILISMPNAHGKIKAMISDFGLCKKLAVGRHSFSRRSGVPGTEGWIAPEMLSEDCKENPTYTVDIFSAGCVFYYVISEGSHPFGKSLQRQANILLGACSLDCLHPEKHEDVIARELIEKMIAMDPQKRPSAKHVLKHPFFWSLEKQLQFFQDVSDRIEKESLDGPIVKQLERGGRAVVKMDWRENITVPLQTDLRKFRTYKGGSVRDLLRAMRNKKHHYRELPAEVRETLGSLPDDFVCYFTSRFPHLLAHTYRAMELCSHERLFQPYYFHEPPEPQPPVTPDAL
# METHOD_NOTES: Biochemical assay: inhibition of RNase activity of IRE1α
# TEST_SETTINGS: enzyme 0.325 nM, substrate 100 nM, 20 minutes
pIC50: −log10 of the molar value.
Use Condition met when the recorded pIC50 is no lower than 8; use Condition not met when it is lower.

[
  {
    "MOLECULE": "COCCN[C@H]1CC[C@H](c2cnc(N)c3c(-c4cc(F)c(NS(=O)(=O)c5ccc(OC)cc5)cc4F)nn(C(C)C)c32)CC1",
    "CATEGORY": "Condition not met"
  },
  {
    "MOLECULE": "CC(C)n1nc(-c2ccc(NS(=O)(=O)Cc3ccccc3Cl)c(F)c2)c2c(N)ncc(C3=CCC(NC4COC4)CC3)c21 (single isomer, unassigned) [Compound B12]",
    "CATEGORY": "Condition met"
  },
  {
    "MOLECULE": "Nc1ncc(C2=CCC(NC3COC3)CC2)c2c1c(-c1ccc(NS(=O)(=O)c3ccccc3Cl)c(F)c1)nn2C1CC1 (single isomer, unassigned) [Compound B19]",
    "CATEGORY": "Condition met"
  }
]

====

# TARGET_DESC: IRE1α (Homo sapiens)
# Construct: purchased Signal Chem E31-11G
# METHOD_NOTES: Biochemical assay: inhibition of RNase activity of IRE1α
# TEST_SETTINGS: enzyme 0.325 nM, substrate 100 nM, 20 minutes
The entries below come with measured IC50 values attached.
READOUT_TYPE: IC50 (nM)

[
  {
    "MOLECULE": "CCn1nc(-c2ccc(NS(=O)(=O)Cc3ccccc3F)c(F)c2)c2c(N)ncc(C3=CCC(NC4COC4)CC3)c21 (single isomer, unassigned) [Compound B27]",
    "ASSAY_VALUE": 5.9
  },
  {
    "MOLECULE": "CCn1nc(-c2cc(F)c(NS(=O)(=O)c3ccccc3F)cc2F)c2c(N)ncc(C3=CCC(NC4COC4)CC3)c21 (stereo not drawn) [Compound B30]",
    "ASSAY_VALUE": 82
  },
  {
    "MOLECULE": "CCn1nc(-c2cc(F)c(NS(=O)(=O)c3ccccc3Cl)cc2F)c2c(N)ncc(C3=CCC(NC4COC4)CC3)c21 (stereo not drawn) [Compound B31]",
    "ASSAY_VALUE": 47
  }
]

====

# TARGET_DESC: IRE1α (Homo sapiens, UniProt O75460)
# Construct: purchased Signal Chem E31-11G
# METHOD_NOTES: Biochemical assay: inhibition of RNase activity of IRE1α
# TEST_SETTINGS: enzyme 0.325 nM, substrate 100 nM, 20 minutes
pIC50: −log10 of the molar value.
As shown below, each of these compounds has a reported pIC50 value.

[
  {
    "COMPOUND": "CC(C)n1nc(-c2cc(F)c(NS(=O)(=O)c3ccccc3Cl)cc2F)c2c(N)ncc(C3=CCC(NC4COC4)CC3)c21 (single isomer, unassigned) [Compound B11]",
    "pIC50": 7.47
  },
  {
    "COMPOUND": "COCCN[C@H]1CC[C@H](c2cnc(N)c3c(-c4cc(F)c(NS(=O)(=O)c5ccc(F)c(OC)c5)cc4F)nn(C(C)C)c32)CC1",
    "pIC50": 7.77
  },
  {
    "COMPOUND": "COCC(C)NC1CC=C(c2cnc(N)c3c(-c4ccc(NS(=O)(=O)Cc5ccccc5Cl)c(F)c4)nn(C(C)C)c23)CC1 (single isomer, unassigned) [Compound B4]",
    "pIC50": 8.92
  },
  {
    "COMPOUND": "CC(CF)NC1CC=C(c2cnc(N)c3c(-c4ccc(NS(=O)(=O)Cc5ccccc5Cl)c(F)c4)nn(C(C)C)c23)CC1 (single isomer, unassigned) [Compound B44]",
    "pIC50": 8.80
  },
  {
    "COMPOUND": "COCC(C)NC1CC=C(c2cnc(N)c3c(-c4ccc(NS(=O)(=O)Cc5ccccc5Cl)c(F)c4)nn(C(C)C)c23)CC1 (single isomer, unassigned) [Compound B5]",
    "pIC50": 8.92
  }
]

====

# TARGET_DESC: IRE1α (Homo sapiens)
# Construct: purchased Signal Chem E31-11G
# METHOD_NOTES: Biochemical assay to detect inhibition of kinase activity of IRE1α (ADP-Glo)
pIC50: −log10 of the molar value.

[
  {
    "COMPOUND": "CC(C)n1nc(-c2ccc(NS(=O)(=O)c3ccccc3F)c(F)c2)c2c(N)ncc([C@H]3CC[C@H](N(C)C4COC4)CC3)c21",
    "pIC50": 8.44
  },
  {
    "COMPOUND": "CCn1nc(-c2cc(F)c(NS(=O)(=O)c3ccccc3Cl)cc2F)c2c(N)ncc([C@H]3CC[C@H](NC4COC4)CC3)c21",
    "pIC50": 8.55
  },
  {
    "COMPOUND": "CCn1nc(-c2ccc(NS(=O)(=O)Cc3ccccc3Cl)c(F)c2)c2c(N)ncc(C3=CCC(NC4COC4)CC3)c21 (single isomer, unassigned)",
    "pIC50": 8.41
  },
  {
    "COMPOUND": "CC(C)n1nc(-c2cc(F)c(NS(=O)(=O)Cc3ccccc3F)cc2F)c2c(N)ncc([C@H]3CC[C@H](NC4COC4)CC3)c21",
    "pIC50": 8.80
  },
  {
    "COMPOUND": "CCn1nc(-c2cc(F)c(NS(=O)(=O)Cc3ccccc3Cl)cc2F)c2c(N)ncc([C@H]3CC[C@H](NC4COC4)CC3)c21",
    "pIC50": 8.52
  },
  {
    "COMPOUND": "CC(C)n1nc(-c2ccc(NS(=O)(=O)Cc3ccccc3F)c(F)c2)c2c(N)ncc(C3=CCC(NC4COC4)CC3)c21 (single isomer, unassigned)",
    "pIC50": 8.72
  }
]

====

# TARGET_DESC: IRE1α (Homo sapiens, UniProt O75460)
# Construct: purchased Signal Chem E31-11G
# METHOD_NOTES: Biochemical assay: inhibition of RNase activity of IRE1α
# TEST_SETTINGS: enzyme 0.325 nM, substrate 100 nM, 20 minutes
READOUT_TYPE: log10(IC50) (log10 of the value in nM)

[
  {
    "MOLECULE": "CC(C)n1nc(-c2ccc(NS(=O)(=O)Cc3ccccc3Cl)c(F)c2)c2c(N)ncc([C@H]3CC[C@H](NC4COC4)CC3)c21",
    "ASSAY_VALUE": -0.52
  },
  {
    "MOLECULE": "COCCN[C@H]1CC[C@H](c2cnc(N)c3c(-c4cc(F)c(NS(=O)(=O)Cc5ccc(F)cc5)cc4F)nn(C(C)C)c32)CC1",
    "ASSAY_VALUE": -0.05
  },
  {
    "MOLECULE": "CC(C)n1nc(-c2ccc(NS(=O)(=O)c3ccccc3Cl)c(F)c2)c2c(N)ncc(C3=CCC(NC4CC(F)(F)C4)CC3)c21 (single isomer, unassigned) [Compound B50]",
    "ASSAY_VALUE": 0.70
  },
  {
    "MOLECULE": "COCCN[C@H]1CC[C@H](c2cnc(N)c3c(-c4cc(F)c(NS(=O)(=O)c5ccc(Cl)cc5)cc4F)nn(C(C)C)c32)CC1",
    "ASSAY_VALUE": 1.32
  },
  {
    "MOLECULE": "CC(C)n1nc(-c2cc(F)c(NS(=O)(=O)c3ccccc3Cl)cc2F)c2c(N)ncc(C3=CCC(NC4COC4)CC3)c21 (single isomer, unassigned) [Compound B10]",
    "ASSAY_VALUE": 1.11
  },
  {
    "MOLECULE": "CC(C)n1nc(-c2ccc(NS(=O)(=O)Cc3ccccc3Cl)c(F)c2)c2c(N)ncc(C3=CCC(NC4CC(F)(F)C4)CC3)c21 (single isomer, unassigned) [Compound B49]",
    "ASSAY_VALUE": 0.61
  },
  {
    "MOLECULE": "COc1ccc(Cl)c(S(=O)(=O)Nc2ccc(-c3nn(C(C)C)c4c(C5=CCC(NC6COC6)CC5)cnc(N)c34)cc2F)c1 (single isomer, unassigned) [Compound B8]",
    "ASSAY_VALUE": 0.83
  },
  {
    "MOLECULE": "Cc1ccc(F)c(S(=O)(=O)Nc2ccc(-c3nn(C(C)C)c4c(C5=CCC(NC6COC6)CC5)cnc(N)c34)cc2F)c1 (racemic) [racemic mixture of B16 & B17]",
    "ASSAY_VALUE": 1.11
  },
  {
    "MOLECULE": "CCn1nc(-c2ccc(NS(=O)(=O)c3cc(Cl)ccc3F)c(F)c2)c2c(N)ncc(C3=CCC(NC4COC4)CC3)c21 (single isomer, unassigned)",
    "ASSAY_VALUE": 0.75
  },
  {
    "MOLECULE": "COCCN[C@H]1CC[C@H](c2cnc(N)c3c(-c4cc(F)c(NS(=O)(=O)c5ccc(F)cc5)cc4F)nn(C(C)C)c32)CC1",
    "ASSAY_VALUE": 1.23
  },
  {
    "MOLECULE": "CCn1nc(-c2cc(F)c(NS(=O)(=O)Cc3ccccc3F)cc2F)c2c(N)ncc([C@H]3CC[C@H](NC4COC4)CC3)c21",
    "ASSAY_VALUE": 0.73
  },
  {
    "MOLECULE": "COCCN[C@H]1CC[C@H](c2cnc(N)c3c(-c4cc(F)c(NS(=O)(=O)Cc5ccccc5F)cc4F)nn(C(C)C)c32)CC1",
    "ASSAY_VALUE": 0.18
  },
  {
    "MOLECULE": "CC(C)n1nc(-c2ccc(NS(=O)(=O)c3ccccc3F)c(F)c2)c2c(N)ncc([C@H]3CC[C@H](N(C)C4COC4)CC3)c21",
    "ASSAY_VALUE": 0.89
  },
  {
    "MOLECULE": "COCCNC1CC=C(c2cnc(N)c3c(-c4ccc(NS(=O)(=O)Cc5ccccc5Cl)c(F)c4)nn(C(C)C)c23)CC1 (single isomer, unassigned) [Compound B55]",
    "ASSAY_VALUE": -0.05
  },
  {
    "MOLECULE": "CC(C)n1nc(-c2ccc(NS(=O)(=O)Cc3ccccc3Cl)c(F)c2)c2c(N)ncc(C3=CCC(NC4COC4)CC3)c21 (single isomer, unassigned) [Compound B13]",
    "ASSAY_VALUE": 0.72
  },
  {
    "MOLECULE": "CC(C)n1nc(-c2cc(F)c(NS(=O)(=O)c3ccccc3F)cc2F)c2c(N)ncc([C@H]3CC[C@H](N(C)C4COC4)CC3)c21",
    "ASSAY_VALUE": 1.08
  },
  {
    "MOLECULE": "COCCN(CCOC)[C@H]1CC[C@H](c2cnc(N)c3c(-c4cc(F)c(NS(=O)(=O)c5cc(OC)ccc5F)cc4F)nn(C(C)C)c32)CC1",
    "ASSAY_VALUE": 1.11
  },
  {
    "MOLECULE": "CCOc1ccc(F)c(S(=O)(=O)Nc2cc(F)c(-c3nn(C(C)C)c4c3c(N)ncc4[C@H]3CC[C@H](NCCOC)CC3)cc2F)c1",
    "ASSAY_VALUE": 0.28
  },
  {
    "MOLECULE": "Nc1ncc(C2=CCC(NC3COC3)CC2)c2c1c(-c1ccc(NS(=O)(=O)Cc3ccccc3Cl)c(F)c1)nn2C1CC1 (single isomer, unassigned) [Compound B22]",
    "ASSAY_VALUE": -0.05
  },
  {
    "MOLECULE": "CC(CF)NC1CC=C(c2cnc(N)c3c(-c4ccc(NS(=O)(=O)c5ccccc5Cl)c(F)c4)nn(C(C)C)c23)CC1 (single isomer, unassigned) [Compound B40]",
    "ASSAY_VALUE": 1.15
  },
  {
    "MOLECULE": "CC(C)n1nc(-c2cc(F)c(NS(=O)(=O)Cc3ccccc3Cl)cc2F)c2c(N)ncc(C3=CCC(NC4COC4)CC3)c21 (single isomer, unassigned) [Compound B7]",
    "ASSAY_VALUE": 1.32
  },
  {
    "MOLECULE": "COCCN(CCOC)[C@H]1CC[C@H](c2cnc(N)c3c(-c4cc(F)c(NS(=O)(=O)c5ccccc5F)cc4F)nn(C(C)C)c32)CC1",
    "ASSAY_VALUE": 1.78
  },
  {
    "MOLECULE": "COCCN[C@H]1CC[C@H](c2cnc(N)c3c(-c4cc(F)c(NS(=O)(=O)c5cccc(OC)c5F)cc4F)nn(C(C)C)c32)CC1",
    "ASSAY_VALUE": 0.46
  }
]

Value source: patent US20220153734A1
